- target-or-test-system: chymotrypsin (Bos taurus, UniProt P00766)
- measurement-protocol: Inactivation of chymotrypsin
- Assay type: biochemical, bovine
- stated-conditions: Table XVI; pH 7.5, 25° C; [I] 1.7-58 μM; read-out: kobs/[I]
quantity-name: kinact/KI (M⁻¹ s⁻¹)

Answered examples (3):
>  <compound>
CC(=O)Nc1ccc2c(Cl)c(OCCCBr)oc(=O)c2c1

>  <target-or-test-system>
chymotrypsin (Bos taurus, UniProt P00766)

>  <kinact/KI (M⁻¹ s⁻¹)>
3980

$$$$
>  <compound>
CC(C)(C)OC(=O)N[C@@H](Cc1ccccc1)C(=O)Nc1ccc2c(Cl)c(OCCCBr)oc(=O)c2c1

>  <target-or-test-system>
chymotrypsin (Bos taurus, UniProt P00766)

>  <kinact/KI (M⁻¹ s⁻¹)>
490

$$$$
>  <compound>
Nc1ccc2c(Cl)c(OCCBr)oc(=O)c2c1

>  <target-or-test-system>
chymotrypsin (Bos taurus, UniProt P00766)

>  <kinact/KI (M⁻¹ s⁻¹)>
1160

$$$$

A. C[C@H](NC(=O)Nc1ccc2c(Cl)c(OCCBr)oc(=O)c2c1)c1ccccc1
B. Nc1ccc2c(Cl)c(OCCCBr)oc(=O)c2c1
Problem: Short answer wanted: higher kinact/KI, A or B ? Response format: the label of the selected entry.
Solution: B

###

- target-or-test-system: chymotrypsin (Bos taurus, UniProt P00766)
- measurement-protocol: Inactivation of chymotrypsin
- Type: biochemical, bovine
- stated-conditions: Table XVI; pH 7.5, 25° C; [I] 1.7-58 μM; read-out: kobs/[I]
quantity-name: kinact/KI (M⁻¹ s⁻¹)

Use these answered entries as a reference point.
>  <compound>
CC(C)(C)OC(=O)N[C@@H](Cc1ccccc1)C(=O)Nc1ccc2c(Cl)c(OCCBr)oc(=O)c2c1

>  <quantity-name>
kinact/KI

>  <units-of-measure>
M⁻¹ s⁻¹

>  <meas-value>
400

$$$$
>  <compound>
CC(C)(C)OC(=O)N[C@H](Cc1ccccc1)C(=O)Nc1ccc2c(Cl)c(OCCCBr)oc(=O)c2c1

>  <quantity-name>
kinact/KI

>  <units-of-measure>
M⁻¹ s⁻¹

>  <meas-value>
70

$$$$

I. O=C(O)c1ccc(NC(=S)Nc2ccc3c(Cl)c(OCCBr)oc(=O)c3c2)cc1
II. CC(C)(C)NC(=O)Nc1ccc2c(Cl)c(OCCBr)oc(=O)c2c1
Problem: Smaller kinact/KI value? Options are I and II Select an item and report its label.
Solution: II

1. O=C(CCc1ccccc1)Nc1ccc2c(Cl)c(OCCCBr)oc(=O)c2c1
2. O=C(NCc1ccccc1)Nc1ccc2c(Cl)c(OCCBr)oc(=O)c2c1
3. CC(CBr)Oc1oc(=O)c2cc(N)ccc2c1Cl (stereo not shown)
4. O=C(Nc1ccc2c(Cl)c(OCCBr)oc(=O)c2c1)Nc1cccc2ccccc12
Problem: Arrange the 4 entries by kinact/KI so the values rise. In plain terms: list the labels in the order you were asked to.
Solution: 4, 3, 1, 2

1. CC(C)(C)CC(=O)Nc1ccc2c(Cl)c(OCCBr)oc(=O)c2c1
2. O=C(NCc1ccccc1)Nc1ccc2c(Cl)c(OCCCBr)oc(=O)c2c1
Problem: Between these two entries, 1 and 2 , state which has the higher kinact/KI. Write down the label attached to your selection.
Solution: 1
